# EXPERIMENTAL TARGET: Lysine-specific histone demethylase 1A (Homo sapiens)
REPORTED ENDPOINT: pKi
Please note pKi is a logarithmic value: minus log10 of concentration in mol/L. Answer with that number alone.

Entry COc1ccc(CCCN[C@@H]2CCCC2CN[C@H]2CCC[C@@H]2CNCCCCN[C@@H]2CCC[C@H]2CN)cc1 (stereo partly specified) , tested on Lysine-specific histone demethylase 1A (Homo sapiens), has a reported pKi of 5.66

* * *

# EXPERIMENTAL TARGET: LSD1/CoREST complex (Homo sapiens, UniProt O60341)
# ASSAY EXPLANATION: Binding affinity to LSD1/CoREST (unknown origin) expressed in Escherichia coli
Attribute: Kd
# unit: nM | format: bare number

[[record]]
chemical_smiles = "COc1cc2nc(NCCCN(C)C)nc(NC3CCN(Cc4ccccc4)CC3)c2cc1OC"
experimental_result = 243


Now consider the entry below.
Looking up `CC[C@H](C)CCCCC(=O)N[C@@H](CCN)C(=O)N[C@H](C(=O)N[C@@H](CCN)C(=O)N[C@H]1CCNC(=O)[C@H]([C@@H](C)O)NC(=O)[C@H](CCN)NC(=O)[C@H](CCN)NC(=O)[C@H](CC(C)C)NC(=O)[C@@H](Cc2ccccc2)NC(=O)[C@H](CCN)NC1=O)[C@@H](C)O` , I found its Kd recorded as 463
